molecular target: JAK1 (recombinant purified GST-tagged catalytic domain) (Homo sapiens (Human)); test: Jak Biochemical HTRF Assay (JAK1); details: [ATP] 31.8 μM
observable: IC50 (nM)

Previously resolved entries follow.
CN(C)C(c1ccc(Nc2nn([C@]3(CC#N)CC[C@@H](C(=O)OC(C)(C)C)OC3)c3cc[nH]c(=O)c23)cc1)C(F)(F)F (single isomer, unassigned) [Example 5-214] = 0.2
CC(F)(F)C(=O)N1CCC(CC#N)(n2nc(Nc3ccc(S(C)(=O)=O)cc3)c3c(=O)[nH]ccc32)CC1 = 0.1
CC(C)NC(C)(C)c1ccc(Nc2nn(C3(CC#N)CCN(C(=O)OC(C)(C)C)CC3)c3cc[nH]c(=O)c23)cc1 = 0.57
CC(C)(C)OC(=O)N1CCC(CC#N)(n2nc(Nc3cccc(S(C)(=O)=O)c3)c3c(=O)[nH]ccc32)CC1 = 0.5
CC(C)(C)OC(=O)[C@@H]1CC[C@@](CC#N)(n2nc(Nc3ccc(C(C)(O)C(F)(F)F)cc3)c3c(=O)[nH]ccc32)CO1 (single isomer, unassigned) [Example 5-170] = 0.14

1 = CC(C)(C)OC(=O)[C@@H]1CC[C@@](CC#N)(n2nc(Nc3ccc(C(N)C(F)(F)F)cc3)c3c(=O)[nH]ccc32)CO1 (stereo partly shown) [Example 5-103]
2 = Cc1cc(Nc2nn([C@]3(CC#N)CC[C@@H](C(=O)OC(C)(C)C)OC3)c3cc[nH]c(=O)c23)ccc1C(=O)N1CCSC(C)C1 (single isomer, unassigned) [Example 5-159]
3 = CC(C)(C)OC(=O)N1CC[C@](CC#N)(n2nc(Nc3ccc(S(C)(=O)=O)cc3)c3c(=O)[nH]ccc32)[C@@H](F)C1 (single isomer, unassigned)
4 = CC(C)(C)N[C@H](c1ccc(Nc2nn([C@@]3(CC#N)CCOC[C@H]3F)c3cc[nH]c(=O)c23)cc1)C(F)(F)F (single isomer, unassigned)
[Q] Rank the items in ascending order with respect to IC50. Put the labels in the requested order and write them down.
[A] 1, 2, 3, 4

###

biological target: JAK1 (recombinant purified GST-tagged catalytic domain) (Homo sapiens (Human), UniProt P23458); experiment: Jak Biochemical HTRF Assay (JAK1); settings: [ATP] 31.8 μM
Sequence (P23458 875-1153): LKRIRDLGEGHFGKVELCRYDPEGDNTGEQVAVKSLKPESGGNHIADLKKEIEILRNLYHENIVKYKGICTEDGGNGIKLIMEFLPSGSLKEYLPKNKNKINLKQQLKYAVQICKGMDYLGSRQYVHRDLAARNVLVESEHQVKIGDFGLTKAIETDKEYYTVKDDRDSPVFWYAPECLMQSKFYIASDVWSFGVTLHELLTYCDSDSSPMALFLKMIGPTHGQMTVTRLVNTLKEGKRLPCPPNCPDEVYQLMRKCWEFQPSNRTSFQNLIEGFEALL
observable: IC50 (nM)

Some entries whose results are on file:
N#CCC1(n2nc(Nc3ccc4c(c3)COC4=O)c3c(=O)[nH]ccc32)CCCC1 = 0.27
N#CC[C@]1(n2nc(Nc3ccnc(F)c3)c3c(=O)[nH]ccc32)CCCC[C@H]1F = 0.09
CC(C)(C)N1Cc2cc(Nc3nn([C@@]4(CC#N)CCOC[C@H]4F)c4cc[nH]c(=O)c34)ccc2S1(=O)=O (single isomer, unassigned) = 0.14
Cc1cc(Nc2nn([C@]3(CC#N)CC[C@@H](C(=O)OC(C)(C)C)OC3)c3cc[nH]c(=O)c23)ccc1C(=O)N1CCCC1 = 0.09

1 = CN(C)S(=O)(=O)c1ccc(Nc2nn([C@@]3(CC#N)CCN(C(=O)OC(C)(C)C)C[C@H]3F)c3cc[nH]c(=O)c23)cc1
2 = CC(C)(C)OC(=O)N1CC[C@@](CC#N)(n2nc(Nc3ccc(S(C)(=O)=O)cc3)c3c(=O)[nH]ccc32)[C@H](F)C1 (single isomer, unassigned)
3 = Cc1cc(C)cc(Nc2nn(C3(CC#N)CCN(C(=O)OC(C)(C)C)CC3)c3cc[nH]c(=O)c23)c1
[Q] List these items ordered by IC50, big to small. Please write the labels in the order that was asked for.
[A] 3, 2, 1
(3: 0.64 nM, 2: 0.27 nM, 1: 0.1 nM)

###

biological target: JAK2 (recombinant purified GST-tagged catalytic domain) (Homo sapiens (Human)); assay: Jak Biochemical HTRF Assay (JAK2); details: [ATP] 8.5 μM
pIC50: −log10 of the molar value.
observable: pIC50

CC(C)(C)OC(=O)N1CCC(CC#N)(n2nc(Nc3ccc([C@@]4(C(F)(F)F)CCCN4)cc3)c3c(=O)[nH]ccc32)CC1 (single isomer, unassigned) = 9.30

I = Cc1cc(Nc2nn(C3(CC#N)CCN(C(=O)OC(C)(C)C)CC3)c3cc[nH]c(=O)c23)ccc1C(=O)N1CC2CCC(C1)O2
II = CCN(C(C)(C)C)S(=O)(=O)c1ccc(Nc2nn(C3(CC#N)CCCC3)c3cc[nH]c(=O)c23)cc1
[Q] I'm curious whether I or II has the smaller pIC50 number. Which is it? Please indicate the selected item by its label.
[A] II

###

Target: JAK2 (recombinant purified GST-tagged catalytic domain) (Homo sapiens (Human), UniProt O60674)
Sequence (O60674 849-1124): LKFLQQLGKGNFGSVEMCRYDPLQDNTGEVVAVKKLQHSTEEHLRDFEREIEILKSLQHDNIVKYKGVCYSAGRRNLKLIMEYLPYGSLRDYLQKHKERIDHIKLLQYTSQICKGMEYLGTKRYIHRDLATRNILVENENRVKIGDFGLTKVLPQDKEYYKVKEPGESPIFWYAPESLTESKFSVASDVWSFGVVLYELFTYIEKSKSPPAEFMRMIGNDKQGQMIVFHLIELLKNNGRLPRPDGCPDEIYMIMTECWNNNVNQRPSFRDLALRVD
Experiment: Jak Biochemical HTRF Assay (JAK2)
Settings: [ATP] 8.5 μM
Procedure: Jak Biochemical HTRF Assay Protocol The ability of compounds to inhibit the activity of JAK1, JAK2, JAK3, and Tyk2 was measured using a recombinant purified GST-tagged catalytic domain for each enzyme (Invitrogen JAK1 #M4290, JAK2 #M4290, JAK3 #M4290, Tyk2 #M4290) in an HTRF format biochemical assay. […] Plates were shaken and centrifuged and then incubated 60 minutes at room temperature and then read on a Perkin Elmer Envision (λex=337 nm, λem=665 and 615 nm, TRF delay time=20 μs). […]
pIC50: −log10 of the molar value.
observable: pIC50

Examples from the recorded data:
CN(C)S(=O)(=O)c1ccc(Nc2nn(C3(CC#N)CCN(C(=O)C4CC4)CC3)c3cc[nH]c(=O)c23)cc1 = 9.54
CC(C)(C)OC(=O)[C@@H]1CC[C@@](CC#N)(n2nc(Nc3ccc4c(c3)CC(C)(C)C4(O)C(F)(F)F)c3c(=O)[nH]ccc32)CO1 (single isomer, unassigned) [Example 5-165] = 9.00
CN(C)S(=O)(=O)c1ccc(Nc2nn(C3(CC#N)CCN(C(=O)Oc4ccc(F)cc4)CC3)c3cc[nH]c(=O)c23)cc1 = 9.01
CN(C)S(=O)(=O)c1ccc(Nc2nn([C@@]3(CC#N)CCN(C(=O)OC(C)(C)C)C[C@H]3F)c3cc[nH]c(=O)c23)cc1 = 9.92
CC(F)(F)C(=O)N1CCC(CC#N)(n2nc(Nc3ccc(S(C)(=O)=O)cc3)c3c(=O)[nH]ccc32)CC1 = 9.62

P = CS(=O)(=O)c1ccc(Nc2nn(C3(CC#N)CCN(c4cc(C(F)(F)F)ccn4)CC3)c3cc[nH]c(=O)c23)cc1
Q = N#CC[C@]1(n2nc(Nc3ccc(C(N)C(F)(F)F)cc3)c3c(=O)[nH]ccc32)CCCC[C@H]1F (single isomer, unassigned) [Example 5-177]
R = CC(C)OC(=O)N1CCC(CC#N)(n2nc(Nc3ccnc(F)c3)c3c(=O)[nH]ccc32)CC1
S = N#CC[C@]1(n2nc(Nc3ccc4nccc(F)c4c3)c3c(=O)[nH]ccc32)CCOC1 (single isomer, unassigned)
[Q] Ascending by pIC50, please: list the compounds accordingly. I would appreciate it if you listed the labels in the requested order.
[A] S, R, P, Q
